meta.source: the supplement of paper PMC10646978

test system: RAW-Dual (murine macrophage reporter line); assay: IRF reporter (Lucia luciferase) activity fold change vs agonist alone; higher = enhanced IRF activity; settings: modulator concentration 10 µM; agonist: 3'3'-cGAMP 10 ug/mL
quantity kind: IRF reporter

// below: answered molecules
[[record]]
molecule = "Cc1cc2ncn(CC3CCN(C(=O)COc4ccc(F)cc4)CC3)c2cc1C.O=C(O)C(=O)O"
study_system = "RAW-Dual (murine macrophage reporter line)"
observed_measurement = 0.908

[[record]]
molecule = "CC(C)c1nc(CN(C)C(=O)N[C@H](C(=O)N[C@@H](Cc2ccccc2)C[C@H](O)[C@H](Cc2ccccc2)NC(=O)OCc2cncs2)C(C)C)cs1"
study_system = "RAW-Dual (murine macrophage reporter line)"
observed_measurement = 1.04

[[record]]
molecule = "Cc1cccc(OCCCOc2cccc3cccnc23)c1C"
study_system = "RAW-Dual (murine macrophage reporter line)"
observed_measurement = 0.974

[[record]]
molecule = "NC(=O)c1cc2ccccc2oc1=NCc1ccccc1"
study_system = "RAW-Dual (murine macrophage reporter line)"
observed_measurement = 0.946

[[record]]
molecule = "COc1cccc(CCc2ccccc2OCC(CN(C)C)OC(=O)CCC(=O)O)c1.Cl (centres undefined)"
study_system = "RAW-Dual (murine macrophage reporter line)"
observed_measurement = 0.512

[[record]]
molecule = "NC(C(=O)O)c1ccccc1F (centres undefined)"
study_system = "RAW-Dual (murine macrophage reporter line)"
observed_measurement = 0.939

[[record]]
molecule = "Cn1ccnc1Sc1nc(Nc2cccc(Cl)c2)nc(N2CCOCC2)n1"
study_system = "RAW-Dual (murine macrophage reporter line)"
observed_measurement = 0.474

[[record]]
molecule = "COc1ccc(NC(=O)c2nn(-c3ccc(F)cc3)cc2OC)cc1OC"
study_system = "RAW-Dual (murine macrophage reporter line)"
observed_measurement = 0.976


Next:
Record `CN(C)CCN(Cc1ccccc1)Cc1cccc(Cl)c1` . Reported IRF reporter: 0.838

----------
system: RAW-Dual (murine macrophage reporter line); test: NF-kB reporter (SEAP) activity fold change vs agonist alone; higher = enhanced NF-kB activity; conditions: modulator concentration 10 µM; agonist: LPS 0.1 ug/mL
Measured NF-kB reporter values are reported for all entries that follow.
Please give only the number in your answer, with no unit.

Worked set:
[[record]]
molecule = "CCCCCCC=CCCCCCCCc1cccc(O)c1C(=O)O"
quantity_kind = "NF-kB reporter"
observed_measurement = 0.987

[[record]]
molecule = "CCOC(=O)C1=C(C)OC(N)=C(C#N)C1c1cc(C)c(OC)cc1C (centres undefined)"
quantity_kind = "NF-kB reporter"
observed_measurement = 1.01

[[record]]
molecule = "COc1ccc(CNCc2ccc3ccccc3c2)cc1OC"
quantity_kind = "NF-kB reporter"
observed_measurement = 1


Measured NF-kB reporter of `CC(=O)Oc1ccc(C(=O)Nc2ccccc2Br)cc1` : 1.01

----------
// values below are reported viability score
tested on: RAW-Dual (murine macrophage reporter line); experiment: viability score (confluency relative to resting cells, overnight) (fraction); higher = more viable, active = viable (0.7 or more); conditions: modulator concentration 10 µM
I only need the number, thanks.

These recorded examples may help you get a feel for the data.
[[record]]
structure_smiles_string = "CCN(CC)c1ccc2cc(-c3nnc(NCc4ccc(F)cc4)s3)c(=O)oc2c1"
observed_measurement = 1.01

[[record]]
structure_smiles_string = "Cl.Cl.Fc1ccc(C(c2ccc(F)cc2)N2CCN(C/C=C/c3ccccc3)CC2)cc1"
observed_measurement = 0.999

[[record]]
structure_smiles_string = "CN(CC(=O)O)c1nc2ccc(OC(F)(F)F)cc2s1"
observed_measurement = 1.01

[[record]]
structure_smiles_string = "CCOc1nccn2c(CNC(=O)c3cccnc3)nnc12"
observed_measurement = 0.988


// sample `CCOC(=O)c1sc(NC(=O)CSc2nc3ccccc3o2)c(C(=O)OCC)c1C` , its viability score was 0.981

viability score for `CN(C)CCNC(=S)NC(=O)C12CCC3CC(CC(C3)C1)C2` is 1.01

Just so you know, measured viability score for `Cc1cccc(Cn2c(=O)c3nscc3n(Cc3ccc(F)c(F)c3)c2=O)c1` came out at 0.995
